- tested on: Factor X, P00742
- Sequence (P00742 whole entry, looked up): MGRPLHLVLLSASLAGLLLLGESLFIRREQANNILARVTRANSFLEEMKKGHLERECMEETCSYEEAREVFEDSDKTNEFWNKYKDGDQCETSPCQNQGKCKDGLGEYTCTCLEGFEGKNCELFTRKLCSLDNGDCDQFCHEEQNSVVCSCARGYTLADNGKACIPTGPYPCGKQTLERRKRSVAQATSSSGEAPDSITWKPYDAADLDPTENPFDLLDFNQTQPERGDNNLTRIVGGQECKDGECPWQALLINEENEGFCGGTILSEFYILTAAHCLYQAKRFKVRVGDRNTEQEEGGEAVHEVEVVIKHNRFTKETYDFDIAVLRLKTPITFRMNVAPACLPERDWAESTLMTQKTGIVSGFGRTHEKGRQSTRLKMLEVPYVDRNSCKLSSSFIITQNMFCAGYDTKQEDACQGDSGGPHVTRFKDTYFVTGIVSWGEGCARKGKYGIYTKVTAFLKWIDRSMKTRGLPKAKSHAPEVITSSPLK
assay endpoint: KM (Catalytic activity of FIXa variants) (µM)
Note: unit µM is implicit; provide only the numeric part.

Ask: I have this protein here, FIXa-R338E/R403E/E410N (protein) chain 1: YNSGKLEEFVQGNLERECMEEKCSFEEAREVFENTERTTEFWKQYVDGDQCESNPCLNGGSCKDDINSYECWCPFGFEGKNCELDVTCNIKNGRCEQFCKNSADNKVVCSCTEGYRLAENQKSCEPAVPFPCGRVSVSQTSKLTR chain 2: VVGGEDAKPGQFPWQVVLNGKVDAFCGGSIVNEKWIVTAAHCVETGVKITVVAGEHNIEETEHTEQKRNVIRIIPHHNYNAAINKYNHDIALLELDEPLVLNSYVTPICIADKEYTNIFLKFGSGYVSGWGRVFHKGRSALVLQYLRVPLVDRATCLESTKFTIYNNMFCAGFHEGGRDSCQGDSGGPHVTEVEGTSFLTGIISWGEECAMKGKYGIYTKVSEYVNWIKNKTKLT , and I need its recorded KM (Catalytic activity of FIXa variants).
Result: 0.0455

Ask: Next protein: FIXa-Y155F/R318Y/R338E/E410N (protein) chain 1: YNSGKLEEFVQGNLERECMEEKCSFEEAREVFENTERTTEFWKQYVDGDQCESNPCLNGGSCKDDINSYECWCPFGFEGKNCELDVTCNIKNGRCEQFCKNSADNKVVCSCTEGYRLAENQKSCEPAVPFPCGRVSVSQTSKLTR chain 2: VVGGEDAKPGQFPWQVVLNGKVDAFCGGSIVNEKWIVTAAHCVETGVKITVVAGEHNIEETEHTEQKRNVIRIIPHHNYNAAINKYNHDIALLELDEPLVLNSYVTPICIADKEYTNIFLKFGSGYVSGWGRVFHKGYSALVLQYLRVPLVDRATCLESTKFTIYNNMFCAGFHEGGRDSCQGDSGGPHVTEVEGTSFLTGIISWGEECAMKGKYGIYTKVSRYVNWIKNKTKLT
Result: 0.016

Ask: Next protein: FIXa-R318Y/R338E/E410N (protein) chain 1: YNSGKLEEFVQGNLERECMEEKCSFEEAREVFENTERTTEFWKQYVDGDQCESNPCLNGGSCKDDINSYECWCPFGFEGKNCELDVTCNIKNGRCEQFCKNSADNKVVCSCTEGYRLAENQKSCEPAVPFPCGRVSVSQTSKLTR chain 2: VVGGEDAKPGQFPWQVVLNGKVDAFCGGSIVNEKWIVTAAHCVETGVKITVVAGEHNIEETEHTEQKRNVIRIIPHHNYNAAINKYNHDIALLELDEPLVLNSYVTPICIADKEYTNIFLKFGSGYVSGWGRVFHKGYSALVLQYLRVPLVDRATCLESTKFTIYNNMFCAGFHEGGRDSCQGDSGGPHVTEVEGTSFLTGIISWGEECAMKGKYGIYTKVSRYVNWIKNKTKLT
Result: 0.0142

Ask: Next protein: FIXa-D104N/K106S/Y155F/R318Y/R338E/R403E/E410N (protein) chain 1: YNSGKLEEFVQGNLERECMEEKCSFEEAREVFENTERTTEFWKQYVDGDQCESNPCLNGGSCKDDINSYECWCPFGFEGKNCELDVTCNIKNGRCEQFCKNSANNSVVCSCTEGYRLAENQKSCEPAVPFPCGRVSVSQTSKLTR chain 2: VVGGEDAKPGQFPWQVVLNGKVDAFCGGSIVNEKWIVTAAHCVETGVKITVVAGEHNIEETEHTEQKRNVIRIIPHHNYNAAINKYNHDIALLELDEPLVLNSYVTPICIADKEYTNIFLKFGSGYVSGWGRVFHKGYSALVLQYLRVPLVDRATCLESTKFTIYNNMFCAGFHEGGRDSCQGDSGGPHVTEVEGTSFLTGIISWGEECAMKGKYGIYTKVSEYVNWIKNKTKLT
Result: 0.048

Ask: Next protein: FIXa-A103N/N105S/Y155F/R318Y/R338E/R403E/E410N (protein) chain 1: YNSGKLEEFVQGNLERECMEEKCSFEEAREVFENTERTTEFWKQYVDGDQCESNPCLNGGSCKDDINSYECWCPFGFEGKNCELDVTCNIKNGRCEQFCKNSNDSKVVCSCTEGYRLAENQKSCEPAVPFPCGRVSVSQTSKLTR chain 2: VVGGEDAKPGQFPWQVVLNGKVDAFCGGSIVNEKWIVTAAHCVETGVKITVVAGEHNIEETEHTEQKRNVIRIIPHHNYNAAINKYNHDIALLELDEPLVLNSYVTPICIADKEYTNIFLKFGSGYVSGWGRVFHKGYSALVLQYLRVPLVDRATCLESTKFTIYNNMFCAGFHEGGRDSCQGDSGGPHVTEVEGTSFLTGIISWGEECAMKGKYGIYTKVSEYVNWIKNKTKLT
Result: 0.0507

Ask: Next protein: FIXa-D203N/F205T/R318Y/E410N (protein) chain 1: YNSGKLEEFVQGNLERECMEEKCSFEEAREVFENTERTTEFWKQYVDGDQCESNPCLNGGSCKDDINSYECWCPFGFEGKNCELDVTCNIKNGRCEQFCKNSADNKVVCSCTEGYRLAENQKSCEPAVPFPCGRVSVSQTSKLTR chain 2: VVGGEDAKPGQFPWQVVLNGKVNATCGGSIVNEKWIVTAAHCVETGVKITVVAGEHNIEETEHTEQKRNVIRIIPHHNYNAAINKYNHDIALLELDEPLVLNSYVTPICIADKEYTNIFLKFGSGYVSGWGRVFHKGYSALVLQYLRVPLVDRATCLRSTKFTIYNNMFCAGFHEGGRDSCQGDSGGPHVTEVEGTSFLTGIISWGEECAMKGKYGIYTKVSRYVNWIKNKTKLT
Result: 0.0457

Ask: Next protein: FIXa-K228N/R318Y/E410N (protein) chain 1: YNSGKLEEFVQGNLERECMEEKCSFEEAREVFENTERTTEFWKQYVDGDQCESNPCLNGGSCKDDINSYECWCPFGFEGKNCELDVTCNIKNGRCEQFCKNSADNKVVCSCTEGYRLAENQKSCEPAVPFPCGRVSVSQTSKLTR chain 2: VVGGEDAKPGQFPWQVVLNGKVDAFCGGSIVNEKWIVTAAHCVETGVNITVVAGEHNIEETEHTEQKRNVIRIIPHHNYNAAINKYNHDIALLELDEPLVLNSYVTPICIADKEYTNIFLKFGSGYVSGWGRVFHKGYSALVLQYLRVPLVDRATCLRSTKFTIYNNMFCAGFHEGGRDSCQGDSGGPHVTEVEGTSFLTGIISWGEECAMKGKYGIYTKVSRYVNWIKNKTKLT
Result: 0.042
